# study target: HIV-1 Env of isolate 92UG024 (subtype D) (HIV-1)
# experiment description: cell-based or functional assay
reported property: IC50 (neutralization)

PGT-127 (antibody, V domains shown) VH: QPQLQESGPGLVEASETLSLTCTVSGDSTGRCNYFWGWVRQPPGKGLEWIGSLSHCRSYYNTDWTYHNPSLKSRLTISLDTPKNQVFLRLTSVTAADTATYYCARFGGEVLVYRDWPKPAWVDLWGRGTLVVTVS VL: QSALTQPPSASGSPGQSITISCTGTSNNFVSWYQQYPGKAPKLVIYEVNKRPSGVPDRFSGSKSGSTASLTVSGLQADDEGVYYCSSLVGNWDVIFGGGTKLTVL ... > 50 µg/mL
PGT-136 (antibody, V domains shown) VH: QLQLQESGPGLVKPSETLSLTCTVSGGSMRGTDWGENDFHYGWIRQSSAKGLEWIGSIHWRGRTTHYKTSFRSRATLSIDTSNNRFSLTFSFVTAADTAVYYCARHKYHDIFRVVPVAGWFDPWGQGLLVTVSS VL: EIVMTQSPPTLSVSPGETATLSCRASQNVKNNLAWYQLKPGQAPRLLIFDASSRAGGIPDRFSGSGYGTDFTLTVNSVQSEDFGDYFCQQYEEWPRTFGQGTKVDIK ... 0.052 µg/mL
PGT-131 (antibody, V domains shown) VH: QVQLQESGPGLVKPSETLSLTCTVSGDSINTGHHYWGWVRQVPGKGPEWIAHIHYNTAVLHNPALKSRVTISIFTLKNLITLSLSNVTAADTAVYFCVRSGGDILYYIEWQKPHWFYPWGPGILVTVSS VL: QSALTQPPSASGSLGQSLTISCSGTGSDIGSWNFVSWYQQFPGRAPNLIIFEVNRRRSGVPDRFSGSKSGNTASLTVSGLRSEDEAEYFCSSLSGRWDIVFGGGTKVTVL ... > 50 µg/mL
PGT-130 (antibody, V domains shown) VH: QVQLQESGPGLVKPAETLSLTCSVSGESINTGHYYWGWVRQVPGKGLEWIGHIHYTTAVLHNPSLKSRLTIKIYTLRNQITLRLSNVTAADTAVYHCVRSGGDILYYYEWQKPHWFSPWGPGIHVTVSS VL: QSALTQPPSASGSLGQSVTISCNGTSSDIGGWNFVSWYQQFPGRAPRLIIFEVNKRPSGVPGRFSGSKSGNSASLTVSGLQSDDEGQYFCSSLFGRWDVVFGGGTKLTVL ... > 50 µg/mL

--- query ---
Incoming: If you can, please state the reported IC50 (neutralization) value of PGT-123 (antibody, V domains shown) VH: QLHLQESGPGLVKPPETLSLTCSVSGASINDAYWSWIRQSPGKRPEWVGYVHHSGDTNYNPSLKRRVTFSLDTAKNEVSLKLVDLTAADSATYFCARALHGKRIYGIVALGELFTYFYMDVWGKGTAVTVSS VL: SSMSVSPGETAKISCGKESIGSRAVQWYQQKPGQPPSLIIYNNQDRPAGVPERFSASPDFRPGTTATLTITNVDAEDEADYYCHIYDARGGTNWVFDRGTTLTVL .
Outgoing: > 50 µg/mL
